Data origin: patent US20040186066A1

assay: Example 2: phase 1 crossover 3×3 study, fixed kilocalorie meal at 20% and 50% fat, single-dose pharmacokinetics of nelfinavir 250 mg tablets; type: in vivo, human (normal, healthy volunteers); conditions: human, plasma, oral, 1250 mg, nelfinavir; 5×250-mg tablets single dose, fasting (reference); read-out: AUC(0-tlqc), least-squares mean
Recorded Endpoint: AUC(0-t) (ng·h/mL)

Molecule: Cc1c(O)cccc1C(=O)N[C@@H](CSc1ccccc1)[C@H](O)CN1C[C@H]2CCCC[C@H]2C[C@H]1C(=O)NC(C)(C)C (relative stereo) [nelfinavir]
Recorded Endpoint: AUC(0-t)
Units Of Measure: ng·h/mL
Val: 10000

----------
test: Example 1: phase I crossover food-effect study, single-dose pharmacokinetics of nelfinavir 250 mg tablets (total kilocalories and fat); assay type: in vivo, human (normal healthy volunteers); conditions: human, plasma, po, 1250 mg, nelfinavir; 1250 mg single oral dose, fasting (reference); read-out: tmax, least-squares mean

Compound: Cc1c(O)cccc1C(=O)N[C@@H](CSc1ccccc1)[C@H](O)CN1C[C@H]2CCCC[C@H]2C[C@H]1C(=O)NC(C)(C)C (relative stereo) [nelfinavir]
Tmax (h): 2.18

----------
assay: Example 2: phase 1 crossover 3×3 study, fixed kilocalorie meal at 20% and 50% fat, single-dose pharmacokinetics of nelfinavir 250 mg tablets; format: in vivo, human (normal, healthy volunteers); conditions: human, plasma, oral, 1250 mg, nelfinavir; 5×250-mg tablets during moderate calorie/low fat meal (500 Kcal/20% fat); read-out: AUC(0-∞), least-squares mean

Molecule: Cc1c(O)cccc1C(=O)N[C@@H](CSc1ccccc1)[C@H](O)CN1C[C@H]2CCCC[C@H]2C[C@H]1C(=O)NC(C)(C)C (relative stereo)
AUC(0-inf), ng·h/mL: 32700

----------
assay: Example 1: phase I crossover food-effect study, single-dose pharmacokinetics of nelfinavir 250 mg tablets (total kilocalories and fat); type: in vivo, human (normal healthy volunteers); details: human, plasma, po, 1250 mg, nelfinavir; 1250 mg single oral dose with moderate calorie/low fat meal (500 Kcal/20% fat); read-out: t1/2 (terminal half-life), least-squares mean (converted)

Compound: Cc1c(O)cccc1C(=O)N[C@@H](CSc1ccccc1)[C@H](O)CN1C[C@H]2CCCC[C@H]2C[C@H]1C(=O)NC(C)(C)C (relative stereo)
half-life: 4.77 h

----------
assay: Example 1: phase I crossover food-effect study, single-dose pharmacokinetics of nelfinavir 250 mg tablets (total kilocalories and fat); assay type: in vivo, human (normal healthy volunteers); conditions: human, plasma, po, 1250 mg, nelfinavir; 1250 mg single oral dose with high calorie/high fat meal (1000 Kcal/50% fat); read-out: tmax, least-squares mean

Molecule: Cc1c(O)cccc1C(=O)N[C@@H](CSc1ccccc1)[C@H](O)CN1C[C@H]2CCCC[C@H]2C[C@H]1C(=O)NC(C)(C)C (relative stereo)
Tmax: 3.98 h

----------
assay: Example 1: phase I crossover food-effect study, single-dose pharmacokinetics of nelfinavir 250 mg tablets (total kilocalories and fat); type: in vivo, human (normal healthy volunteers); conditions: human, plasma, po, 1250 mg, nelfinavir; 1250 mg single oral dose with low calorie/low fat meal (125 Kcal/20% fat); read-out: AUC(0-tlqc), least-squares mean

Compound: Cc1c(O)cccc1C(=O)N[C@@H](CSc1ccccc1)[C@H](O)CN1C[C@H]2CCCC[C@H]2C[C@H]1C(=O)NC(C)(C)C (relative stereo) [nelfinavir]
Units Of Measure: ng·h/mL
AUC(0-t): 20000

----------
test: Example 2: phase 1 crossover 3×3 study, fixed kilocalorie meal at 20% and 50% fat, single-dose pharmacokinetics of nelfinavir 250 mg tablets; type: in vivo, human (normal, healthy volunteers); details: human, plasma, oral, 1250 mg, Kcal/Fat % 500/20%; read-out: Nelfinavir AUC24

Compound: Cc1c(O)cccc1C(=O)N[C@@H](CSc1ccccc1)[C@H](O)CN1C[C@H]2CCCC[C@H]2C[C@H]1C(=O)NC(C)(C)C (relative stereo)
Units Of Measure: ng·h/mL
AUC: 32600

----------
experiment: Example 1: phase I crossover food-effect study, single-dose pharmacokinetics of nelfinavir 250 mg tablets (total kilocalories and fat); type: in vivo, human (normal healthy volunteers); conditions: human, plasma, po, 1250 mg, nelfinavir; 1250 mg single oral dose with high calorie/high fat meal (1000 Kcal/50% fat); read-out: AUC(0-∞) (AUCinf), least-squares mean
Recorded Endpoint: AUC(0-inf) (ng·h/mL)

Molecule: Cc1c(O)cccc1C(=O)N[C@@H](CSc1ccccc1)[C@H](O)CN1C[C@H]2CCCC[C@H]2C[C@H]1C(=O)NC(C)(C)C (relative stereo)
Units Of Measure: ng·h/mL
Val: 55300

----------
assay: Example 1: phase I crossover food-effect study, single-dose pharmacokinetics of nelfinavir 250 mg tablets (total kilocalories and fat); assay type: in vivo, human (normal healthy volunteers); details: human, plasma, po, 1250 mg, nelfinavir in plasma; 1250 mg single oral dose with low calorie/low fat meal (125 Kcal/20% fat); read-out: Cmax, least-squares mean

Molecule: Cc1c(O)cccc1C(=O)N[C@@H](CSc1ccccc1)[C@H](O)CN1C[C@H]2CCCC[C@H]2C[C@H]1C(=O)NC(C)(C)C (relative stereo)
Units Of Measure: ng/mL
Cmax: 3160

----------
experiment: Example 2: phase 1 crossover 3×3 study, fixed kilocalorie meal at 20% and 50% fat, single-dose pharmacokinetics of nelfinavir 250 mg tablets; assay type: in vivo, human (normal, healthy volunteers); details: human, plasma, oral, 1250 mg, nelfinavir; 5×250-mg tablets during moderate calorie/low fat meal (500 Kcal/20% fat); read-out: tmax, least-squares mean

Compound: Cc1c(O)cccc1C(=O)N[C@@H](CSc1ccccc1)[C@H](O)CN1C[C@H]2CCCC[C@H]2C[C@H]1C(=O)NC(C)(C)C (relative stereo) [nelfinavir]
Tmax / h: 4.19

----------
assay: Example 2: phase 1 crossover 3×3 study, fixed kilocalorie meal at 20% and 50% fat, single-dose pharmacokinetics of nelfinavir 250 mg tablets; assay type: in vivo, human (normal, healthy volunteers); settings: human, plasma, oral, 1250 mg, nelfinavir; 5×250-mg tablets during moderate calorie/low fat meal (500 Kcal/20% fat); read-out: Cmax, least-squares mean
Recorded Endpoint: Cmax (ng/mL)

Compound: Cc1c(O)cccc1C(=O)N[C@@H](CSc1ccccc1)[C@H](O)CN1C[C@H]2CCCC[C@H]2C[C@H]1C(=O)NC(C)(C)C (relative stereo)
Recorded Endpoint: Cmax
Val: 4040

----------
test: Example 1: phase I crossover food-effect study, single-dose pharmacokinetics of nelfinavir 250 mg tablets (total kilocalories and fat); type: in vivo, human (normal healthy volunteers); conditions: human, plasma, oral, 1250 mg, nelfinavir; food intake 1000 kcal/50% fat; read-out: AUC12
Recorded Endpoint: AUC (ng·h/mL)

Molecule: Cc1c(O)cccc1C(=O)N[C@@H](CSc1ccccc1)[C@H](O)CN1C[C@H]2CCCC[C@H]2C[C@H]1C(=O)NC(C)(C)C (relative stereo)
Recorded Endpoint: AUC
Units Of Measure: ng·h/mL
Val: 38900

----------
test: Example 1: phase I crossover food-effect study, single-dose pharmacokinetics of nelfinavir 250 mg tablets (total kilocalories and fat); type: in vivo, human (normal healthy volunteers); settings: human, plasma, po, 1250 mg, nelfinavir; 1250 mg single oral dose, fasting; read-out: Cmax (Table 5)

Compound: Cc1c(O)cccc1C(=O)N[C@@H](CSc1ccccc1)[C@H](O)CN1C[C@H]2CCCC[C@H]2C[C@H]1C(=O)NC(C)(C)C (relative stereo)
Cmax [ng/mL]: 1570

----------
experiment: Example 2: phase 1 crossover 3×3 study, fixed kilocalorie meal at 20% and 50% fat, single-dose pharmacokinetics of nelfinavir 250 mg tablets; format: in vivo, human (normal, healthy volunteers); conditions: human, plasma, oral, 1250 mg, nelfinavir; fasting subjects and test meals, similar; read-out: elimination t½, average (converted)

Molecule: Cc1c(O)cccc1C(=O)N[C@@H](CSc1ccccc1)[C@H](O)CN1C[C@H]2CCCC[C@H]2C[C@H]1C(=O)NC(C)(C)C (relative stereo)
half-life: ~4 h

----------
assay: Example 1: phase I crossover food-effect study, single-dose pharmacokinetics of nelfinavir 250 mg tablets (total kilocalories and fat); format: in vivo, human (normal healthy volunteers); conditions: human, plasma, po, 1250 mg, nelfinavir; 1250 mg single oral dose, fasting (reference); read-out: t1/2 (terminal half-life), least-squares mean (converted)
Recorded Endpoint: half-life

Compound: Cc1c(O)cccc1C(=O)N[C@@H](CSc1ccccc1)[C@H](O)CN1C[C@H]2CCCC[C@H]2C[C@H]1C(=O)NC(C)(C)C (relative stereo)
Recorded Endpoint: half-life
Val: 246 min

----------
experiment: Example 2: phase 1 crossover 3×3 study, fixed kilocalorie meal at 20% and 50% fat, single-dose pharmacokinetics of nelfinavir 250 mg tablets; type: in vivo, human (normal, healthy volunteers); settings: human, plasma, oral, 1250 mg, nelfinavir; 5×250-mg tablets single dose, fasting (reference); read-out: t1/2 (terminal half-life), least-squares mean (converted)

Molecule: Cc1c(O)cccc1C(=O)N[C@@H](CSc1ccccc1)[C@H](O)CN1C[C@H]2CCCC[C@H]2C[C@H]1C(=O)NC(C)(C)C (relative stereo)
half-life: 4.1 h
